I'd be grateful if you could share measured pEC50 for these entries.
System: HIV-IIIb IN T174I BT
test_name: Antiviral assay in MT4 cells, HIV-IIIb IN T174I BT virus (from viral breakthrough)
Type: cell-based, HIV-1
condition_summary: Human immunodeficiency virus 1, IIIB, MT4, 120 h, read-out: T174I BT EC50, MT4 cells, HIV-IIIb IN T174I BT (viral breakthrough), 5 days, CellTiter-Glo
Note on pEC50: it is the negative log10 of concentration, concentration in mol/L.

Query: // lookup pEC50 for COC(=O)N1CC(N2CCC(c3nn(C)c4ccc(-c5nc6cc(C)c([C@H](OC(C)(C)C)C(=O)O)c(-c7ccc(Cl)cc7)c6s5)nc34)CC2)C1
Result: 7.24

Query: // lookup pEC50 for CC(=O)N1CC[C@H]1CN1CCC(c2nn(C)c3ccc(-c4nc5cc(C)c([C@H](OC(C)(C)C)C(=O)O)c(-c6ccc(Cl)cc6)c5s4)cc23)CC1
Result: 6.63

Query: // lookup pEC50 for Cc1cc2nc(-c3ccc4c(c3)c(C3CCN(C5CN(C(=O)OC(C)(C)C)C5)CC3)nn4C)sc2c(-c2ccc(Cl)cc2)c1[C@H](OC(C)(C)C)C(=O)O
Result: 5.74

Query: // lookup pEC50 for Cc1cc2nc(-c3ccc4c(c3)c(N3CCN(C5(C)COC5)CC3)nn4C)sc2c(-c2ccc(Cl)cc2)c1[C@H](OC(C)(C)C)C(=O)O
Result: 6.42

Query: // lookup pEC50 for COC(=O)N1CC(N2CCC(c3nn(C)c4ccc(-c5nc6cc(C)c([C@H](OC(C)(C)C)C(=O)O)c(-c7ccc(Cl)cc7)c6s5)cc34)CC2)C1
Result: 6.80

Query: // lookup pEC50 for CCN1CCN(c2nn(C)c3ccc(-c4nc5cc(C)c([C@H](OC(C)(C)C)C(=O)O)c(-c6ccc(Cl)cc6)c5s4)cc23)C1=O
Result: 5.51

Query: // lookup pEC50 for CCOC(=O)N1CCC(c2nn(C)c3ccc(-c4nc5cc(C)c([C@H](OC(C)(C)C)C(=O)O)c(-c6ccc(Cl)cc6)c5s4)cc23)CC1
Result: 6.11

Query: // lookup pEC50 for Cc1cc2nc(-c3ccc4c(c3)c(C3CCN(C5COC5)CC3)nn4CC(F)(F)F)sc2c(-c2ccc(Cl)cc2)c1[C@H](OC(C)(C)C)C(=O)O
Result: 5.30

Query: // lookup pEC50 for [2H]C([2H])([2H])n1nc(C2CCN(C3COC3)CC2)c2cc(-c3nc4cc(C)c([C@H](OC(C)(C)C)C(=O)O)c(-c5ccc(Cl)cc5)c4s3)ccc21
Result: 6.59

Query: // lookup pEC50 for CN[C@H]1CCN(c2nn(C)c3ccc(-c4nc5cc(C)c([C@H](OC(C)(C)C)C(=O)O)c(-c6ccc(Cl)cc6)c5s4)cc23)C1
Result: 5.57

Query: // lookup pEC50 for Cc1cc2nc(-c3ccc4c(c3)c(C3CCOC3)nn4C)sc2c(-c2ccc(Cl)cc2)c1[C@H](OC(C)(C)C)C(=O)O (stereo partly drawn)
Result: 6.04

Query: // lookup pEC50 for CC(=O)N1CC(N2CCC(c3nn(C)c4ncc(-c5nc6cc(C)c([C@H](OC(C)(C)C)C(=O)O)c(-c7ccc(Cl)cc7)c6s5)nc34)CC2)C1
Result: 6.73
